# targetUnderTest: UniProtKB Q9UBN7
# Sequence (Q9UBN7 1-1215): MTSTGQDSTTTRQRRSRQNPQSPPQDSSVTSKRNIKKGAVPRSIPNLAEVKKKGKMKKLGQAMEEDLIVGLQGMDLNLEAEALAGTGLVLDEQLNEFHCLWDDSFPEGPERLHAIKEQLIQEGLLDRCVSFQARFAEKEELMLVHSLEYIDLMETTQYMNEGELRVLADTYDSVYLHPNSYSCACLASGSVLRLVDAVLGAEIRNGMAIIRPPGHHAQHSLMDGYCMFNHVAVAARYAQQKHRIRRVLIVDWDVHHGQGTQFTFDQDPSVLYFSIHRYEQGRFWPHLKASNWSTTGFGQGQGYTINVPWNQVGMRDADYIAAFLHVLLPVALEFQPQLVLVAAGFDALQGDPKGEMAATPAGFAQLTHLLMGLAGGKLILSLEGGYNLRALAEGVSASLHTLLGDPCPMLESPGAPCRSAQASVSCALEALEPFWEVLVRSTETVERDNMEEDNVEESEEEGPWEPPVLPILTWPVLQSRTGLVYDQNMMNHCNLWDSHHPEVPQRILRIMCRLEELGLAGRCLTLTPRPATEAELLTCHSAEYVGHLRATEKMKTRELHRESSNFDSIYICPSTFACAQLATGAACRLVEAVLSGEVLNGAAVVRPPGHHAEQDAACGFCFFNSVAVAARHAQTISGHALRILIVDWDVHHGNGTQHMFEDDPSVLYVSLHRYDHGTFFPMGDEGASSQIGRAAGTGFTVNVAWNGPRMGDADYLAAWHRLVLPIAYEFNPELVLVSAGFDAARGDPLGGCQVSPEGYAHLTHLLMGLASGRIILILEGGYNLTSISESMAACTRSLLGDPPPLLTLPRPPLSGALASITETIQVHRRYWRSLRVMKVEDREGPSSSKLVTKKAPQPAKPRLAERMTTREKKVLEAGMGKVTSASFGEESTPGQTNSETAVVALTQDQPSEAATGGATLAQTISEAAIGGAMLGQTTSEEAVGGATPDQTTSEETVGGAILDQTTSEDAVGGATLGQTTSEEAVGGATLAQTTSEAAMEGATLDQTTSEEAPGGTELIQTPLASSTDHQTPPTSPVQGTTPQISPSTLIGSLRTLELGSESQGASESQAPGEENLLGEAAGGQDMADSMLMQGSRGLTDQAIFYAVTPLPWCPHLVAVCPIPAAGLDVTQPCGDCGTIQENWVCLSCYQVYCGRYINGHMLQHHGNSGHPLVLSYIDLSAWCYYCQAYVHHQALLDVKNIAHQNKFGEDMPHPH
reportedEndpoint: IC50

CCCNNC(=O)C=Cc1ccc(CNCCc2ccccc2)cc1 [Compound 25c]	> 10 µM

* * *

# targetUnderTest: HDAC3 (Homo sapiens, UniProt O15379)
# Construct: purchased BPS Bioscience
# Sequence (O15379 whole entry): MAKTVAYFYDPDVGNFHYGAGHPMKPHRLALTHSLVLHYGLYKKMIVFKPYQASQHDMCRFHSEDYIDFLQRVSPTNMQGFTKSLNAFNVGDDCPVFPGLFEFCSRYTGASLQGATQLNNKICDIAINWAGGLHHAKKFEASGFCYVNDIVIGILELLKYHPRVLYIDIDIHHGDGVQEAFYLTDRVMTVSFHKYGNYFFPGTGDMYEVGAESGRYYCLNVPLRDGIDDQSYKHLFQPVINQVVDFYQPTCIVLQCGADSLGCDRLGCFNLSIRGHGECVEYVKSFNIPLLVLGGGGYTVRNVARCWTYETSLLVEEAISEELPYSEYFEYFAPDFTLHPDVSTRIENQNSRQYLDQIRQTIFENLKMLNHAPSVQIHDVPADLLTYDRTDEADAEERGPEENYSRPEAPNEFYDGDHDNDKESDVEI
# Sequence (Q9Y618 395-489 partner limits assumed): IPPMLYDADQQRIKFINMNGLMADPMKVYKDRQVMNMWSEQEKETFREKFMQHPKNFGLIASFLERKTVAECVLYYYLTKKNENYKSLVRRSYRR
# methodSummary: In vitro HDAC inhibition fluorescence assay, HDAC3
# Type: biochemical
# assayContext: 100 nM; read-out: Inhibition Rate of HDAC3 (%)
reportedEndpoint: inhibition at 0.1 µM (%)

CCCNNC(=O)CCCC(=O)NCCc1ccccc1	53.7
CCCNNC(=O)CCCCCCCCNC(=O)Cc1ccccc1 [Compound 14f]	48.8
CCCNNC(=O)c1ccc(C=CC(=O)NCCc2ccccc2)cc1	87.2
CCCNNC(=O)CCCCCNC(=O)Cc1ccccc1 [Compound 14c]	54.4
CCCNNC(=O)c1ccc(C(=O)NCCc2ccccc2)cc1	50.6
CCCNNC(=O)c1ccc(CCC(=O)NCCc2ccccc2)cc1	80.7
CCCNNC(=O)CCCCNC(=O)Cc1ccccc1 [Compound 14b]	45.2
CCCNNC(=O)C=Cc1ccc(CNC2Cc3ccccc3C2)cc1 [Compound 25e]	95.6
CCCNNC(=O)C=Cc1ccc(C(=O)NC2Cc3ccccc3C2)cc1 [Compound 19a]	78.2

* * *

# targetUnderTest: HDAC1 (Homo sapiens)
# Construct: purchased BPS Bioscience
# methodSummary: In vitro HDAC inhibition fluorescence assay, HDAC1
# Format: biochemical
# assayContext: 10 nM; read-out: Inhibition Rate of HDAC1 (%)
Kind request: treat 20% as inclusive, so inhibition at 0.01 µM at 20% or higher is yes, anything lower is no.

CCCNNC(=O)C=Cc1ccc(CNCc2ccccc2)cc1 [Compound 25b]	yes
CCCNNC(=O)C=Cc1ccc(CNc2cccc3ccccc23)cc1 [Compound 25f]	yes
CCCNNC(=O)Cc1ccc(C(=O)NCCc2ccccc2)cc1 [Compound 9i]	no
CCCNNC(=O)CCCCCCCC(=O)NCCc1ccccc1 [Compound 9f]	no
CCCNNC(=O)CCCCCCCNC(=O)Cc1ccccc1 [Compound 14e]	no
CCCNNC(=O)c1ccc(C=CC(=O)NCCc2ccccc2)cc1 [Compound 9l]	yes
Nc1ccccc1NC(=O)c1ccc(CNC(=O)OCc2cccnc2)cc1 [Entinostat, reference compound]	no

* * *

# Test system: MV4-11, THP-1, HL60 and Kasumi-1 cells
# methodSummary: Cell viability assay, four AML cell lines together
# Format: cell-based
# assayContext: 72 h; read-out: IC50 values against four AML cell lines (range)
reportedEndpoint: IC50

CCCNNC(=O)C=Cc1ccc(CNCCc2ccccc2)cc1 [Compound 25c]	338 to 480 nM

* * *

# targetUnderTest: HDAC1 (Homo sapiens, UniProt Q13547)
# Construct: purchased BPS Bioscience
# Sequence (Q13547 whole entry): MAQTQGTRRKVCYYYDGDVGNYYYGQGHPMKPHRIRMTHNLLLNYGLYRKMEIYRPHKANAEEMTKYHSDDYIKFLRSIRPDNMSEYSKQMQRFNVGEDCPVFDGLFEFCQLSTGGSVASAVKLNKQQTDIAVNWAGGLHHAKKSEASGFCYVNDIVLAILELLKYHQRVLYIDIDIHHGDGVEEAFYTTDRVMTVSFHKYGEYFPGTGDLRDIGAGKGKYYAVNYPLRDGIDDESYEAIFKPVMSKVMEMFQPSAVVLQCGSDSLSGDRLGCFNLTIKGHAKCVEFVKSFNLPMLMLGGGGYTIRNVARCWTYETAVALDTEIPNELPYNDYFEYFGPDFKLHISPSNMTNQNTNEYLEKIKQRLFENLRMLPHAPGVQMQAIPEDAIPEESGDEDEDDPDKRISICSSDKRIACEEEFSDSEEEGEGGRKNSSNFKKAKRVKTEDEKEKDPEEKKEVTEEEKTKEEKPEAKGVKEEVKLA
# methodSummary: In vitro HDAC inhibition fluorescence assay, HDAC1
# Assay type: biochemical
# assayContext: 10 nM; read-out: Inhibition Rate of HDAC1 (%)
reportedEndpoint: inhibition at 0.01 µM (%)

CCCNNC(=O)C=Cc1ccc(CNCc2ccccn2)cc1 [Compound 25d]	9.3
CCCNNC(=O)C=Cc1ccc(C(=O)NCCc2ccccc2)cc1	32.8
CCCNNC(=O)C=Cc1ccc(CNC2Cc3ccccc3C2)cc1 [Compound 25e]	10.9
CCCNNC(=O)CCCC(=O)NCCc1ccccc1	-9.2
CCCNNC(=O)CCCCCC(=O)NCCc1ccccc1	5.58

* * *

# IC50 per entry
# targetUnderTest: HDAC1 (Homo sapiens, UniProt Q13547)
reportedEndpoint: IC50 (nM)

CCCNNC(=O)C=Cc1ccc(CN2C(=O)c3ccccc3C2=O)cc1 [Compound 30]	136
CCCNNC(=O)C=Cc1ccc(CNCc2ccccc2)cc1 [Compound 25b]	27
CCCNNC(=O)C=Cc1ccc(CNc2ccccc2)cc1 [Compound 25a]	96.5
CCCNNC(=O)C=Cc1ccc(CNCc2cccc3ccccc23)cc1 [Compound 25g]	16
CCCNNC(=O)C=Cc1ccc(CNCc2ccccn2)cc1 [Compound 25d]	101
CCCNNC(=O)C=Cc1ccc(CNC2Cc3ccccc3C2)cc1 [Compound 25e]	36.5

* * *

# targetUnderTest: HDAC5 (Homo sapiens)
# Sequence (Q9UQL6 whole entry): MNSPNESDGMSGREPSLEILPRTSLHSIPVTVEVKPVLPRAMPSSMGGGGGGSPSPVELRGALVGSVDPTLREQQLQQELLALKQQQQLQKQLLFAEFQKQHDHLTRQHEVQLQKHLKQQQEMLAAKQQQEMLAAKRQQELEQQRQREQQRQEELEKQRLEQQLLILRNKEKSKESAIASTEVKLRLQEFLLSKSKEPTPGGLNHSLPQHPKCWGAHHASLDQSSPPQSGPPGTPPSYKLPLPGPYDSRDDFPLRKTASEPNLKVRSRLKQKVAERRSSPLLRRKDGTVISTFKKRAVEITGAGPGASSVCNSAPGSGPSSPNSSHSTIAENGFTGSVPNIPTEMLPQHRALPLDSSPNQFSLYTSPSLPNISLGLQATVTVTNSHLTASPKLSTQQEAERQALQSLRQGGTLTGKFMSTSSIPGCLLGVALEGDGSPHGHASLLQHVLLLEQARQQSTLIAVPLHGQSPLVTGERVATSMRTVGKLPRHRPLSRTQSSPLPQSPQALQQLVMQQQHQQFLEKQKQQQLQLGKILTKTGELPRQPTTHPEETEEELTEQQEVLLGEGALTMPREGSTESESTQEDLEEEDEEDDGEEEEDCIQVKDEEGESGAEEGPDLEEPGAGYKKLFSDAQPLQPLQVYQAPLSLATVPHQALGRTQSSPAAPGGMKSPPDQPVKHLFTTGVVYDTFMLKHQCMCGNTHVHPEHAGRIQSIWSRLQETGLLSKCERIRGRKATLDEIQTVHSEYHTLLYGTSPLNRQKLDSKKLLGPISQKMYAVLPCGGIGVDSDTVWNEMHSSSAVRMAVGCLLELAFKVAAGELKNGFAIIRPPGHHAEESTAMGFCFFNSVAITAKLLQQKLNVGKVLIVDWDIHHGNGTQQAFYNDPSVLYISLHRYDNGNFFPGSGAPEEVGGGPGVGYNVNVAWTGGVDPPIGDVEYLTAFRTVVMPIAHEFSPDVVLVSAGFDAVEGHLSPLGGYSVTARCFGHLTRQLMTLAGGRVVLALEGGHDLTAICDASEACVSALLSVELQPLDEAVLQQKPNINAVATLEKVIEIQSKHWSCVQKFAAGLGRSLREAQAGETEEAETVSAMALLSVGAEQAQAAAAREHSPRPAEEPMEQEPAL
pIC50: −log10 of the molar value.
reportedEndpoint: pIC50

CCCNNC(=O)C=Cc1ccc(CNCCc2ccccc2)cc1 [Compound 25c]	< 5.00

* * *

# targetUnderTest: HDAC4 (Homo sapiens, UniProt P56524)
# Sequence (P56524 whole entry): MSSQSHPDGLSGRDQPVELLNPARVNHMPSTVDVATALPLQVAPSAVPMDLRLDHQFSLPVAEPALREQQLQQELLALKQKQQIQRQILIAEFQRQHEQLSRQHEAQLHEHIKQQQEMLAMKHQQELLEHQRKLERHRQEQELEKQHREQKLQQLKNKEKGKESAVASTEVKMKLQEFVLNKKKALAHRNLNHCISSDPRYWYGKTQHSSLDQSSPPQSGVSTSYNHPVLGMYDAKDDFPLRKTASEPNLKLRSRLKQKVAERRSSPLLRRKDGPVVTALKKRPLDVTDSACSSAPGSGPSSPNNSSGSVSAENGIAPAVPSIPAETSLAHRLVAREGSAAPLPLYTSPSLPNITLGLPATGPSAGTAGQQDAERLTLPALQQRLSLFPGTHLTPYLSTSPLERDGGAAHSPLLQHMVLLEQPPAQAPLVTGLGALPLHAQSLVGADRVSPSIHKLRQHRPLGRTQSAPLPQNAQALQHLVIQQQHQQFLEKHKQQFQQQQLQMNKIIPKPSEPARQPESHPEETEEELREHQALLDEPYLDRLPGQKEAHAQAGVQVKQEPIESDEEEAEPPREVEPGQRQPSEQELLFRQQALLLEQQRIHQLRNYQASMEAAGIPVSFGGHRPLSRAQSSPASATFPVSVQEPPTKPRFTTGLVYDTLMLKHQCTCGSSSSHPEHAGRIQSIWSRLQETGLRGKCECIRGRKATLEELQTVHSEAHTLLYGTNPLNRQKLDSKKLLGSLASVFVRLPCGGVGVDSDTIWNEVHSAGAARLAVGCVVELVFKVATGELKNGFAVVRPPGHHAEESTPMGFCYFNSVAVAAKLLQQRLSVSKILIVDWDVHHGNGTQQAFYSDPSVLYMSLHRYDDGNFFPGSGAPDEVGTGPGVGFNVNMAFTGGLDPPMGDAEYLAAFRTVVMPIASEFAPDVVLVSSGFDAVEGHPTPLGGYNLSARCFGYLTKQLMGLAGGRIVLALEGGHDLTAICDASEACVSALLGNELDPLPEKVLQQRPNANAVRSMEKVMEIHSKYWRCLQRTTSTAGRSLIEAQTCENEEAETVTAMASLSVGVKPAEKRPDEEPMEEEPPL
pIC50: −log10 of the molar value.
reportedEndpoint: pIC50

CCCNNC(=O)C=Cc1ccc(CNCCc2ccccc2)cc1 [Compound 25c]	< 5.00

* * *

# targetUnderTest: HDAC8 (Homo sapiens, UniProt Q9BY41)
# Sequence (Q9BY41 1-377): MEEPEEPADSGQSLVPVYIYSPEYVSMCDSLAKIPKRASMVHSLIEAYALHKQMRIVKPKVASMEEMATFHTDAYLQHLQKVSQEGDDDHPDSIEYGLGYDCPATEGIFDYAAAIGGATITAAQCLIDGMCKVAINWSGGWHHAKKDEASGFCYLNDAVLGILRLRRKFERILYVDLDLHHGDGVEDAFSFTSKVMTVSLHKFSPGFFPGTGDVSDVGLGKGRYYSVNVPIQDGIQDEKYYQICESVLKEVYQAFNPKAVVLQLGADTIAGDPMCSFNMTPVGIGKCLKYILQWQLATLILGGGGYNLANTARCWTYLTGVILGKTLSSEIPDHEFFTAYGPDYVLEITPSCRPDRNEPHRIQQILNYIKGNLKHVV
reportedEndpoint: IC50 (µM)

CCCNNC(=O)C=Cc1ccc(CNCCc2ccccc2)cc1 [Compound 25c]	4.11

* * *

# targetUnderTest: HDAC3 (Homo sapiens)
# Construct: purchased BPS Bioscience
# methodSummary: In vitro HDAC inhibition fluorescence assay, HDAC3
# Type: biochemical
# assayContext: 100 nM; read-out: Inhibition Rate of HDAC3 (%)
Output: class label from inhibition at 0.1 µM. Mapping: range 1 = under 40%, range 2 = from 40% up to 80%, range 3 = 80% and over

CCCNNC(=O)c1ccc(CC(=O)NCCc2ccccc2)cc1	range 1
CCCNNC(=O)C=Cc1ccc(CNCc2ccccc2)cc1 [Compound 25b]	range 3
CCCNNC(=O)C=Cc1ccc(CNCc2cccc3ccccc23)cc1 [Compound 25g]	range 2
CCCNNC(=O)C=Cc1ccc(CNCc2ccccn2)cc1 [Compound 25d]	range 3
CCCNNC(=O)C=Cc1ccc(CN2C(=O)c3ccccc3C2=O)cc1	range 3
CCCNNC(=O)C=Cc1ccc(CNCCc2ccccc2)cc1 [Compound 25c]	range 3
CCCNNC(=O)CCCCCCC(=O)NCCc1ccccc1	range 3
CCCNNC(=O)C=Cc1ccc(C(=O)N2CCc3ccc(Br)cc3C2)cc1 [Compound 19d]	range 1
CCCNNC(=O)CCCCC(=O)NCCc1ccccc1	range 2
CCCNNC(=O)CCCNC(=O)Cc1ccccc1 [Compound 14a]	range 1
CCCNNC(=O)CCCCCC(=O)NCCc1ccccc1	range 2
CCCNNC(=O)C=Cc1ccc(C(=O)N2CCc3cc(Br)ccc3C2)cc1 [Compound 19c]	range 1
CCCNNC(=O)Cc1ccc(C(=O)NCCc2ccccc2)cc1	range 1
CCCNNC(=O)C=Cc1ccc(C(=O)N2CCc3ccccc3C2)cc1 [Compound 19b]	range 1
CCCNNC(=O)CCCCCCCNC(=O)Cc1ccccc1 [Compound 14e]	range 2
CCCNNC(=O)CCCCCCNC(=O)Cc1ccccc1 [Compound 14d]	range 2
CCCNNC(=O)CCC(=O)NCCc1ccccc1	range 1
CCCNNC(=O)C=Cc1ccc(CNc2cccc3ccccc23)cc1 [Compound 25f]	range 2
